# Test system: HS 578T breast
# Test Method Notes: NCI-60 one-dose screen, 48 h
# Experimental Context: 10 µM unless noted
This is part of a sample that, as a whole, favours compounds with a hit. Of some 83,000 tested, about 20% had one in any assay. Activity calls are given as the source filed them. The calls were made as follows: active = growth percent below 10; inactive = the rest.
Please reply with one of these outcomes: 1 (active), 0 (inactive)

[[record]]
molecule = "CCOC(=O)C(CNc1ccccc1)C(=O)OCC"
experimental_target = "HS 578T breast"
cat = 0


(Q) Lab log entry: CCN1CCN(CCNc2nccc(-c3c(-c4cccc(O)c4)nc4sccn34)n2)S1(=O)=O — outcome as called in the assay?
(A) 0

(Q) Lab log entry: COc1ccccc1C(C)=O — outcome as called in the assay?
(A) 0

(Q) Lab log entry: COc1cc(Nc2nc3ccccc3nc2NS(=O)(=O)c2ccc(NC(=O)c3ccc(C)c(OC)c3)cc2)cc(OC)c1 — outcome as called in the assay?
(A) 1

(Q) Lab log entry: CC1(c2ccc3ccccc3c2)CCC(=O)O1 (stereo unspecified) — outcome as called in the assay?
(A) 0

(Q) Lab log entry: CC1=NN(c2ccccc2)C(=O)C1C(=O)c1ccccc1 (stereo unspecified) — outcome as called in the assay?
(A) 0
